Measured values drawn from ChEMBL document CHEMBL1144029 for this set.

Tested On: Cytochrome P450 3A4 (Homo sapiens)
Test Details: Binding affinity to purified human recombinant CYP3A4 expressed in Escherichia coli assessed as spectral dissociation constant
Reported Metric: pKd
// field semantics: pKd = negative decimal log of concentration (mol/L)

Before answering, review these 2 worked examples.
CS(=O)(=O)OCC1COC(Cn2cncn2)(c2ccc(Cl)cc2Cl)O1 (stereo not drawn) ... 5.46
Clc1ccc(Cn2cc(-c3ccncc3)cn2)c(Cl)c1 ... 6.42

We next turn to a different molecule, shown below.
IN: Give a short answer stating reported pKd for CCC1COC(Cn2cncn2)(c2ccc(Cl)cc2Cl)O1 (stereo not drawn) .
OUT: 6.68

====

Tested On: Cytochrome P450 3A4 (Homo sapiens, UniProt P08684)
Sequence (P08684 whole entry): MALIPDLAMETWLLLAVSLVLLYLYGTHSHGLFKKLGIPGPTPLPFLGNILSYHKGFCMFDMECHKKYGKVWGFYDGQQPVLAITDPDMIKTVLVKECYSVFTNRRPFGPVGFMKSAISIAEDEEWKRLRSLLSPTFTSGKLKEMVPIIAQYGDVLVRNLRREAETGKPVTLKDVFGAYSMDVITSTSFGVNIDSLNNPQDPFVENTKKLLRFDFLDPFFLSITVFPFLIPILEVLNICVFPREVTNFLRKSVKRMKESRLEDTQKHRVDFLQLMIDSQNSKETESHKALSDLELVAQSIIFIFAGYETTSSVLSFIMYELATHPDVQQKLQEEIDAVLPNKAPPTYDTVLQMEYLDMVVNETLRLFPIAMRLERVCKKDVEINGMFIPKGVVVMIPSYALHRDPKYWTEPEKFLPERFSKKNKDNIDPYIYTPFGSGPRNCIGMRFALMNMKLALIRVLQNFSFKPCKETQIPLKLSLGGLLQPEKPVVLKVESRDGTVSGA
Test Details: Inhibition of human recombinant CYP3A4 expressed in Saccharomyces cerevisiae by fluorescence assay
pIC50: −log10 of the molar value.
Measured pIC50 by item

Before answering, review these 2 worked examples.
Cc1cnc(CNc2cc(-c3ccccc3)nc(-c3ccccn3)n2)nc1 ... < 4.40
CS(=O)(=O)Cc1cc(N2CCCC2)nc(-c2ccccc2)n1 ... < 4.40

We next turn to a different compound, shown below.
IN: Give a short answer stating reported pIC50 for `O=C(Nc1ccccc1)OCc1cn(-c2ccc(Cl)cc2)nn1` .
OUT: < 4.70
